Molecular target: mouse Elp2 protein (Mus musculus, UniProt Q91WG4)
Sequence (Q91WG4 1-831): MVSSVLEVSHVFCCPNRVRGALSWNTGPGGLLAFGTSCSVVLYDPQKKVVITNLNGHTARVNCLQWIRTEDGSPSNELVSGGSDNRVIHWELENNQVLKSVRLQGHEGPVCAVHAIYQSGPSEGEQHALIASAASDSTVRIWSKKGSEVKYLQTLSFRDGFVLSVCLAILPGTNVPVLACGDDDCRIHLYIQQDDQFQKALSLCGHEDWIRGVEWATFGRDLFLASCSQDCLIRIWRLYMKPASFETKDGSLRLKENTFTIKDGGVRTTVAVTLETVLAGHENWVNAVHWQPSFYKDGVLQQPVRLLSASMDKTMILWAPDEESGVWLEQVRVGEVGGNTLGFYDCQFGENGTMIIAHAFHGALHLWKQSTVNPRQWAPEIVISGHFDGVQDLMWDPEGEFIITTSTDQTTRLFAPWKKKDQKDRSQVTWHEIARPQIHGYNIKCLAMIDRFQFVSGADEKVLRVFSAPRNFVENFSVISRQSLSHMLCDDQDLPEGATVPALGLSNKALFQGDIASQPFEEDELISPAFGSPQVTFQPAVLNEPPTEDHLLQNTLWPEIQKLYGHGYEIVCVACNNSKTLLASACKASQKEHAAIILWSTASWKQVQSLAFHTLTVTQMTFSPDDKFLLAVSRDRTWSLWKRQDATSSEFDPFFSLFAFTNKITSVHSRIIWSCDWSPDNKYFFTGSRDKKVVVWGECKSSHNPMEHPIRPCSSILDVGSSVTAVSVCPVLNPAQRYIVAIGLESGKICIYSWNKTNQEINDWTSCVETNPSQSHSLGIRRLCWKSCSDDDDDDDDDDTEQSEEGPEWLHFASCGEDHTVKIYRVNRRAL
Experiment: SPRi affinity measurement of chip-immobilized library compounds to Elp2 protein
Format: binding
Counter-ions that a name gives are not always drawn.
measured.parameter: Kd (µM)
# unit: µM | format: bare number

Kd lookup needed for CNC[C@H](O)c1ccc(O)c(O)c1 [Epinephrine bitartrate] , thanks.
0.676

Could you share which Kd value was measured for CC(C)NCC(O)c1ccc(O)c(O)c1 (stereo not shown) [Isoprenaline hydrochloride] ?
4.6

Please look up its Kd: O=C1O[C@H](CO)[C@@H](O)[C@H](O)[C@H]1O
31

Sample Cn1nnc2c(C(N)=O)ncn2c1=O [Temozolomide] — what was its Kd?
2.53

---

Biological target: mouse Elp2 protein (Mus musculus, UniProt Q91WG4)
Sequence (Q91WG4 1-831): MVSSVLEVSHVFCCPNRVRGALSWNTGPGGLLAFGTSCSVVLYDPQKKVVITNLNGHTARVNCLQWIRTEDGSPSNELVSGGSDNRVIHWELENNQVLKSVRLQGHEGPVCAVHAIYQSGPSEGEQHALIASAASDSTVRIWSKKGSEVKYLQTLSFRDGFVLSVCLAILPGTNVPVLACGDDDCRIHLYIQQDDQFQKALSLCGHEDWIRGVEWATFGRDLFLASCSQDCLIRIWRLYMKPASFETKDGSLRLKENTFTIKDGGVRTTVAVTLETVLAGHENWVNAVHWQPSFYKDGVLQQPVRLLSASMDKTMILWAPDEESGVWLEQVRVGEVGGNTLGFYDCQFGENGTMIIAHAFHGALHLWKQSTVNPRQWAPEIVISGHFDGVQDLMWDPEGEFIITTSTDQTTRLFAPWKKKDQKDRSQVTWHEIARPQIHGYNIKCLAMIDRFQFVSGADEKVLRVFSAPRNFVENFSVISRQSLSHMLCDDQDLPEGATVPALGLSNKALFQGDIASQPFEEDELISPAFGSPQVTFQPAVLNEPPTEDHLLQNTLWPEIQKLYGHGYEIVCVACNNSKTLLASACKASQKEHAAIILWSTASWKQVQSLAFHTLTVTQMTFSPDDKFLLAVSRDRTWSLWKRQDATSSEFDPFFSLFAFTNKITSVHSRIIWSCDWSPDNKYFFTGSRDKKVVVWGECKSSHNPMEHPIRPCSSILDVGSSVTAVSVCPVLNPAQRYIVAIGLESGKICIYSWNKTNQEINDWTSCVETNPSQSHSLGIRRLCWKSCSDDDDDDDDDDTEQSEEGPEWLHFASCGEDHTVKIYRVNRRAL
Assay: SPRi affinity measurement of chip-immobilized library compounds to Elp2 protein
Format: binding
Conditions: SPRi, Elp2 200-3200 nM, 1:1 Langmuir binding
measured.parameter: pKd
Formally, pKd is defined as -log10 of the concentration c, with c in mol/L.

What value of measured pKd is listed for CC(C)N(CCC(c1ccccc1)c1cc(CO)ccc1O)C(C)C (stereo not shown) [5-Hydroxymethyl tolterodine] ?
5.83

---

Biological target: mouse Elp2 protein (Mus musculus)
Experiment: SPRi affinity measurement of chip-immobilized library compounds to Elp2 protein
Type: binding
Structures can show the parent of a compound that is named as a salt.
Can you tell me kon for the items I'm about to list?
Your answer is read as M⁻¹ s⁻¹, so omit the unit and give the number.

What kon value was documented for this molecule, CNC[C@H](O)c1ccc(O)c(O)c1 [Epinephrine bitartrate] ?
783

Please look up its kon: CC(C)NCC(O)c1ccc(O)c(O)c1 (stereo not shown) [Isoprenaline hydrochloride]
987

May I ask what kon has been recorded for Cn1nnc2c(C(N)=O)ncn2c1=O [Temozolomide] ?
182

Would you kindly share the measured kon for O=C1O[C@H](CO)[C@@H](O)[C@H](O)[C@H]1O ?
2640

---

Biological target: UniProt Q91WG4
Assay: SPRi affinity measurement of chip-immobilized library compounds to Elp2 protein
Type: binding
Structures can show the parent of a compound that is named as a salt.
Please go through the items and note down their koff.
Write the value in s⁻¹ as a bare number.

Look up koff for this compound: Cn1nnc2c(C(N)=O)ncn2c1=O [Temozolomide]
0.000462

Look up koff for this compound: CNC[C@H](O)c1ccc(O)c(O)c1 [Epinephrine bitartrate]
0.000529

Can you share its koff? I mean this compound: O=C1O[C@H](CO)[C@@H](O)[C@H](O)[C@H]1O [Gluconolactone]
0.0819

GET /values?readout=koff&item= CC(C)NCC(O)c1ccc(O)c(O)c1 (stereo not shown) [Isoprenaline hydrochloride]
0.00454
